# TESTED_SYSTEM: Voltage-gated inwardly rectifying potassium channel KCNH2 (Homo sapiens)
# METHOD_SUMMARY: Human Ether-a-go-go-Related Gene (hERG) channel small molecule antagonists: fluorescence cell-based qHTS assay (AID 1671200); also: nearly all actives have a fitted effect of over 50% in size
# ASSAY_SETUP: hERG-U2OS cells, FluxOR thallium flux fluorescence; series mostly up to 76.8 µM
# Source text: National Center for Advancing Translational Sciences [NCATS] U.S. Environmental Protection Agency [EPA] National Institutes of Environmental Health Sciences [NIEHS] National Toxicology Program [NTP] U.S. Food and Drug Administration [FDA] Mutations in the hERG channel cause Long QT (LQT) syndrome. LQT syndrome is a cardiac disorder which can cause ventricle arrhythmia and sudden death. Additionally, compounds which block the hERG channel can cause acquired LQT syndrome. […]
Inconclusive results are not listed. Activity calls are given as the source filed them. Calls follow the shape of the dose curve; as a rule, active = well fitted inhibition curve with a large enough effect in the repeat runs; inconclusive = weak or mixed curves; inactive = flat fitted curve, though single readings scatter.
Response enum: active, inactive

Worked cases, answers included:
COMPOUND | TESTED_SYSTEM | QUALITATIVE_LABEL
Oc1c(I)cc(I)c2cccnc12 | Voltage-gated inwardly rectifying potassium channel KCNH2 (Homo sapiens) | inactive
Oc1ccc(Cl)c2cccnc12 | Voltage-gated inwardly rectifying potassium channel KCNH2 (Homo sapiens) | inactive
CC(=O)NC1(c2cccc(F)c2)CCN(CC[C@@]2(c3ccc(Cl)c(Cl)c3)CN(c3ccccc3)C(=O)CO2)CC1 | Voltage-gated inwardly rectifying potassium channel KCNH2 (Homo sapiens) | active
CCCCCCNC(=O)n1cc(F)c(=O)[nH]c1=O | Voltage-gated inwardly rectifying potassium channel KCNH2 (Homo sapiens) | inactive
CC[N+](CC)(CCNC(=O)C(=O)NCC[N+](CC)(CC)Cc1ccccc1Cl)Cc1ccccc1Cl | Voltage-gated inwardly rectifying potassium channel KCNH2 (Homo sapiens) | inactive

Check the results log: what was the call for c1ccc(C[n+]2cccc3ccccc32)cc1 ? inactive

Which outcome was entered for the compound CCCCN(CCCC)C(C(N)=O)c1ccc(OC)cc1 (configuration not stated) in this test? inactive

Which result was noted for this compound in the test: Cc1c(C)c2c(c(C)c1OC(=O)CCC(=O)OCCO)CC[C@@](C)(CCC[C@H](C)CCC[C@H](C)CCCC(C)C)O2 inactive

Per the assay record, what outcome was assigned to CCOC(C)=O ? inactive

* * *

# METHOD_SUMMARY: qHTS assay to identify small molecule antagonists of the retinoic acid receptor (RAR) signaling pathway (AID 1159552; also: nearly all actives have a fitted effect of over 50% in size; also: potency is read from the fitted curve at half-maximal effect)
# ASSAY_SETUP: C3RL4 RARE luciferase reporter, retinol-stimulated, 6 h; series mostly up to 92.4 µM
Records with an inconclusive call do not appear. Activity calls are given as the source filed them. Calls follow the shape of the dose curve; as a rule, active = well fitted inhibition curve with a large enough effect in the repeat runs; inconclusive = weak or mixed curves, or effect the other way; inactive = no such curve, though single readings can be large or run the other way.
ENDPOINT: Potency

Example cases with answers are listed next.
COMPOUND | Potency
O=C(O)C[C@H](NC(=O)OCc1ccccc1)C(=O)O | inactive
CCCCCCCCCCCCCCN(CCO)CCO | 30.6 µM (active)
CC(=O)Nc1cc(S(=O)(=O)O)cc2cc(S(=O)(=O)O)c(N=Nc3ccccc3)c(O)c12 | inactive
CCCCCC[C@@H](O)C/C=C\CCCCCCCC(=O)OCC(O)CO (stereo partly specified) | inactive
Oc1cc2c(cc1O)[C@H]1c3ccc(O)c(O)c3OC[C@@]1(O)C2 | inactive

The compound identified as Cc1cc(C)c(N)cc1C registered its Potency at inactive

The compound identified as O=C(CCc1ccc(O)cc1)c1c(O)cc(O)cc1O registered its Potency at inactive

* * *

# METHOD_SUMMARY: Human pregnane X receptor (PXR) small molecule agonists, qHTS cell viability counter screen (AID 1346977); also: nearly all actives have a fitted effect of over 50% in size
# ASSAY_SETUP: PXR-Luc HepG2 viability, CellTiter-Fluor, 24 h; series mostly up to 92.4 µM
# Source text: U.S. Tox21 Program National Center for Advancing Translational Sciences [NCATS] NIH Chemical Genomics Center [NCGC] U.S. Environmental Protection Agency [EPA] National Institutes of Environmental Health Sciences [NIEHS] National Toxicology Program [NTP] U.S. Food and Drug Administration [FDA] […]
Records with an inconclusive call do not appear. Calls of active or inactive are those of the source. Calls come from the whole dose curve; as a rule, active = well fitted cell-killing curve with a large enough effect in the repeat runs; inconclusive = weak or mixed curves, or effect the other way; inactive = flat fitted curve, though single readings scatter.
Reply using exactly one outcome from YES (active), NO (inactive)

Before answering, review these 8 worked examples.
COMPOUND | QUALITATIVE_LABEL
COC(=O)[C@H]1[C@H]2C[C@@H]3c4[nH]c5cc(OC)ccc5c4CCN3C[C@H]2C[C@@H](OC(=O)/C=C/c2ccc(O)c(OC)c2)[C@@H]1OC | YES
C(=C\c1ccccc1)/c1ccccc1 | NO
CCCCN(CCCC)C(C(N)=O)c1ccc(OC)cc1 (centres undefined) | NO
O=[N+]([O-])c1ccc(Nc2ccc(Nc3ccccc3)c(S(=O)(=O)O)c2)c([N+](=O)[O-])c1 | YES
O=C(O)C[C@H](NC(=O)OCc1ccccc1)C(=O)O | NO
CC(=O)Nc1cc(S(=O)(=O)O)cc2cc(S(=O)(=O)O)c(N=Nc3ccccc3)c(O)c12 | YES
CCn1cc(C(=O)O)c(=O)c2cc(F)c(N3CCNCC3)cc21 | NO
NC(=O)c1ccncc1 | NO

Attention now turns to another entry.
Name the outcome recorded for Clc1cc(Cl)nc(Cl)n1 in the assay. NO

* * *

# METHOD_SUMMARY: qHTS assay to identify small molecule antagonists of the retinoid-related orphan receptor gamma (ROR-gamma) signaling pathway - cell viability counter screen (AID 1159520); also: nearly all actives have a fitted effect of over 50% in size
# ASSAY_SETUP: Tet-on RORgamma CHO cells viability, ATP luminescence, 16 h; series mostly up to 92.4 µM
Records with an inconclusive call do not appear. Calls of active or inactive are those of the source. Calls come from the whole dose curve; as a rule, active = well fitted cell-killing curve with a large enough effect in the repeat runs; inconclusive = weak or mixed curves, or effect the other way; inactive = no such curve, though single readings can be large or run the other way.
API: response.call in active, inactive

Please review the entries below; each comes with its answer.
MOLECULE | QUALITATIVE_LABEL
COc1ncnc(NS(=O)(=O)c2ccc(N)cc2)c1OC | inactive
CCC1CO1 (stereo unspecified) | inactive
CNC(=O)c1cnn(-c2nc(N)c3ncn([C@@H]4O[C@H](CO)[C@@H](O)[C@H]4O)c3n2)c1 | inactive
Cc1ccc(C(C)(C)O)cc1 | inactive
Cc1ccccc1N=C(N)Nc1ccccc1C | inactive
CCCCCC[C@@H](O)C/C=C\CCCCCCCC(=O)OCC(O)CO (stereo partly specified) | inactive
CC(=O)Nc1ccc(C)cc1C | inactive
O=c1cc(-c2ccccc2)oc2cc(O)cc(O)c12 | inactive
CC(=O)OCC[N+](C)(C)C | inactive
COC(=O)CCS | inactive

What classification did O=C=Nc1cccc(C(F)(F)F)c1 end up with in this test? inactive

* * *

# METHOD_SUMMARY: A CellTox Green Cytotoxicity Assay to monitor cytotoxicity in HepG2 cells - 16 hour (AID 1224876); also: nearly all actives have a fitted effect of over 45% in size
# ASSAY_SETUP: CellTox Green fluorescence; series mostly up to 76.8 µM
Records with an inconclusive call do not appear. Active and inactive are the calls of the source. Calls follow the shape of the dose curve; as a rule, active = well fitted activation curve with a large enough effect in the repeat runs; inconclusive = weak or mixed curves; inactive = flat fitted curve, though single readings scatter.
Returns: one label drawn from true for active, false for inactive

Here are 5 molecules together with their reported answers.
MOLECULE | QUALITATIVE_LABEL
CC(=O)OCC(=O)NCCCOc1cccc(CN2CCCCC2)c1 | false
Nc1nc2ccc([N+](=O)[O-])cc2s1 | true
CCCCCC[C@@H](O)C/C=C\CCCCCCCC(=O)OCC(O)CO (stereo partly specified) | false
CN1CC(=O)N2[C@H](c3ccc4c(c3)OCO4)c3[nH]c4ccccc4c3C[C@@H]2C1=O | false
CC1(C)[C@H](C(=O)O)N2C(=O)C[C@H]2S1(=O)=O | false

# input for lookup
Each molecule tested received a call. Report the one for CC(=O)OCC[N+](C)(C)C . false

* * *

# TESTED_SYSTEM: Cytochrome P450 2C19 (Homo sapiens)
# METHOD_SUMMARY: Cytochrome P450 Family 2 Subfamily C Member 19 (CYP2C19) small molecule antagonists: luciferase reporter qHTS assay (AID 1671197); also: nearly all actives have a fitted effect of over 65% in size
# ASSAY_SETUP: P450-Glo CYP2C19 enzyme, luciferin luminescence, 1 h; series mostly up to 52.9 µM
Results filed as inconclusive are left out. The source made the active and inactive calls. Calls follow the shape of the dose curve; as a rule, active = well fitted inhibition curve with a large enough effect in the repeat runs; inconclusive = weak or mixed curves; inactive = no such curve, though single readings can be large or run the other way.
The categories you may choose from are YES for active, NO for inactive

Recorded results for 4 compounds are shown here.
COMPOUND | QUALITATIVE_LABEL
CCC1CO1 (stereo unspecified) | NO
Cc1cccc(O)c1N | YES
COc1cc(C(=O)NCCCCCC(=O)O)cc(OC)c1OC | NO
C=C(C)C(=O)OCCOCCOC(=O)C(=C)C | YES

Could you kindly confirm the outcome this assay logged for CC(C)=CCC/C(C)=C/CC/C(C)=C/CCC(=O)OC/C=C(\C)CCC=C(C)C ? NO

Entry CC(=O)Nc1cc(S(=O)(=O)O)cc2cc(S(=O)(=O)O)c(N=Nc3ccccc3)c(O)c12 : call = ? YES

* * *

# METHOD_SUMMARY: qHTS assay to identify small molecule antagonists of the estrogen receptor beta (ER-beta) signaling pathway - cell viability counter screen (AID 1259382); also: nearly all actives have a fitted effect of over 55% in size
# ASSAY_SETUP: ER-beta-UAS-bla HEK293T viability, CellTiter-Glo luminescence, 16 h; series mostly up to 92.4 µM
Inconclusive results are not listed. Calls of active or inactive are those of the source. Calls follow the shape of the dose curve; as a rule, active = well fitted cell-killing curve with a large enough effect in the repeat runs; inconclusive = weak or mixed curves; inactive = flat fitted curve, though single readings scatter.
Select the correct class. Options are T (active), F (inactive) and nothing else.

Would you please look over these solved cases?
MOLECULE | QUALITATIVE_LABEL
CN1CC(=O)N2[C@H](c3ccc4c(c3)OCO4)c3[nH]c4ccccc4c3C[C@@H]2C1=O | F
CN(C)CCC=C1c2ccccc2C=Cc2ccccc21 | T
CCCCCCCCCCC(=O)O | F
OCCN1CCN(CCCN2c3ccccc3Sc3ccc(Cl)cc32)CC1 | T

Which outcome did this test record for the molecule O=C(O)CCc1nc(-c2ccccc2)c(-c2ccccc2)o1 ? F

How did this test come out for COC(=O)CS ? F

GET /call?item= OC(CCN1CCCC1)(c1ccccc1)C1CCCCC1 (stereo not given) returns the recorded outcome of this test. F

What was the test verdict on O=C1NCCN1CCO ? F

Field: outcome | Entry: O=C1c2ccccc2C(=O)C1c1ccc(Br)cc1 F

Can you look up the reported call for CC1=C(CC=O)C(C)(C)CCC1 for me? F

Data credit: PubChem BioAssay (Tox21)
